Molecular target: MRP3 (Homo sapiens)
Construct: host or cells: MDCK II
Sequence (O15438 whole entry): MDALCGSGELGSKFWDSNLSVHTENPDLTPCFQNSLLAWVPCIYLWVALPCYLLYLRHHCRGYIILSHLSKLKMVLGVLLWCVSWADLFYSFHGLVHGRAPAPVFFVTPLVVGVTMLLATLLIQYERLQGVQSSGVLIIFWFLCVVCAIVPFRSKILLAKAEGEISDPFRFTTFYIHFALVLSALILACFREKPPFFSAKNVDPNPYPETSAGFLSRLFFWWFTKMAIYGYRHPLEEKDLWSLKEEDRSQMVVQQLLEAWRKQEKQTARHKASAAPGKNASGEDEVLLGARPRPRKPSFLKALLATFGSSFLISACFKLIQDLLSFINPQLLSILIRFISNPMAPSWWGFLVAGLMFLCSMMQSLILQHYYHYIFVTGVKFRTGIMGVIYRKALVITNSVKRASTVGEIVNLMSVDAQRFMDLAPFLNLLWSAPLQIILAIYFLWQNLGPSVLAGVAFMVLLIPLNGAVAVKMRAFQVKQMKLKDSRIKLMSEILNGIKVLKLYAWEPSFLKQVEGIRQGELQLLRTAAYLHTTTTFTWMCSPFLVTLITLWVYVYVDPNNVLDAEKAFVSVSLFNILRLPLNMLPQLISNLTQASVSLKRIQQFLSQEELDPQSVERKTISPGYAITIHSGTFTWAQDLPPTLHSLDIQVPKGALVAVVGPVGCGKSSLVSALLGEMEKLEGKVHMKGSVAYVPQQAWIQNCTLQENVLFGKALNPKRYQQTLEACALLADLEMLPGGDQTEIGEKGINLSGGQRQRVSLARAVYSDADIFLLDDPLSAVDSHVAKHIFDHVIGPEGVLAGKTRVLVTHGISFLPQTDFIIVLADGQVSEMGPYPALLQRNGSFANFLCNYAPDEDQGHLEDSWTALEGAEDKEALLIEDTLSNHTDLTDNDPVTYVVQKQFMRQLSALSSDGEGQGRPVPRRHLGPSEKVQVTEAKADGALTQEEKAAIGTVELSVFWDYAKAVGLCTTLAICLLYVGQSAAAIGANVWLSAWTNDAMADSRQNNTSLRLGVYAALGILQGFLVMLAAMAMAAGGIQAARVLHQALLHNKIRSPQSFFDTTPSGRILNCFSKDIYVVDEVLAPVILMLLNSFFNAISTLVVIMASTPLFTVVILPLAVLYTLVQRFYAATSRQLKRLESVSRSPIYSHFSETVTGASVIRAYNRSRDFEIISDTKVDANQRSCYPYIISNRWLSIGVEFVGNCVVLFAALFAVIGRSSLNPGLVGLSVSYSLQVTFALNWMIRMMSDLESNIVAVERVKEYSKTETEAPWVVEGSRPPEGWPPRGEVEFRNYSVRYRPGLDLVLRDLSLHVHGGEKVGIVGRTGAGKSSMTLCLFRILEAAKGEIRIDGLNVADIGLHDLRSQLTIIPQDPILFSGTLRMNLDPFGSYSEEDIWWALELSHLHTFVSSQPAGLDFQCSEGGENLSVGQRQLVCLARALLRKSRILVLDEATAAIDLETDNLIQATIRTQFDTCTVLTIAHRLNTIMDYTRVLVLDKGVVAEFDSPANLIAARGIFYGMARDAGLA
Assay: Transport of baicalin across MDCK II-MRP3 cell monolayer (transwell)
Type: in vitro ADME
Details: human, pH 7.4, MDCK II-MRP3; 100 μM BG + 1% PEG400

>  <Compound>
O=C(O)[C@H]1O[C@@H](Oc2cc3oc(-c4ccccc4)cc(=O)c3c(O)c2O)[C@H](O)[C@@H](O)[C@@H]1O [BG, Baicalein-7-O-β-D-glucuronide]

>  <Tested system>
MRP3 (Homo sapiens)

>  <Papp B→A at 120 min, 100 μM>
0.72 ×10⁻⁶ cm/s

$$$$

* * *

Test: Transport of baicalin across MDCK II-WT cell monolayer (transwell)
Format: in vitro ADME
Conditions: dog, MDCK, pH 7.4, MDCK II-WT; 100 μM BG + 0.25% PEG400; read-out: ER
Readout: efflux ratio at 120 min, 100 μM

>  <Molecule>
O=C(O)[C@H]1O[C@@H](Oc2cc3oc(-c4ccccc4)cc(=O)c3c(O)c2O)[C@H](O)[C@@H](O)[C@@H]1O [BG, Baicalein-7-O-β-D-glucuronide]

>  <Readout>
efflux ratio at 120 min, 100 μM

>  <Experimental result>
1.94

$$$$

* * *

Test: Transport of baicalin across MDCK II-WT cell monolayer (transwell)
Type: in vitro ADME
Settings: dog, MDCK, pH 7.4, MDCK II-WT; 100 μM BG + 0.25% PEG400
Method: The cells were inoculated at a density of 0.5 mL (1 × 10^5) in the upper layer of the transwell plate (AP side), and the culture was changed daily after the lower layer was added with 1.5 mL of complete medium without cells every other day. […] The electrical resistance of the cell monolayer compartments was measured with a resistivity meter (TEER), and the integrity of the cell monolayer was monitored using TEER. […]

>  <Molecule>
O=C(O)[C@H]1O[C@@H](Oc2cc3oc(-c4ccccc4)cc(=O)c3c(O)c2O)[C@H](O)[C@@H](O)[C@@H]1O [BG, Baicalein-7-O-β-D-glucuronide]

>  <Papp A→B at 120 min, 100 μM>
4.57 ×10⁻⁶ cm/s

$$$$

* * *

Target: BCRP (Homo sapiens)
Construct: expressed in transfected cells; host or cells: MDCK II
Experiment: Transport of baicalin across MDCK II-BCRP cell monolayer (transwell)
Type: in vitro ADME
Details: pH 7.4, MDCK II-BCRP, 100 μM BG + 0.25% PEG400
Readout: Papp B→A at 120 min, 100 μM (×10⁻⁶ cm/s)

>  <Molecule>
O=C(O)[C@H]1O[C@@H](Oc2cc3oc(-c4ccccc4)cc(=O)c3c(O)c2O)[C@H](O)[C@@H](O)[C@@H]1O [BG, Baicalein-7-O-β-D-glucuronide]

>  <Value unit>
×10⁻⁶ cm/s

>  <Experimental result>
8.98

$$$$

* * *

Biological target: MRP3 (Homo sapiens)
Construct: host or cells: MDCK II
Experiment: Transport of baicalin across MDCK II-MRP3 cell monolayer (transwell)
Format: in vitro ADME
Conditions: human, pH 7.4, MDCK II-MRP3; 100 μM BG alone

>  <Molecule>
O=C(O)[C@H]1O[C@@H](Oc2cc3oc(-c4ccccc4)cc(=O)c3c(O)c2O)[C@H](O)[C@@H](O)[C@@H]1O [BG, Baicalein-7-O-β-D-glucuronide]

>  <Papp A→B at 120 min, 100 μM>
0.74 ×10⁻⁶ cm/s

$$$$

* * *

Experiment: Transport of baicalin across MDCK II-WT cell monolayer (transwell)
Assay type: in vitro ADME
Conditions: dog, MDCK, pH 7.4, MDCK II-WT; 100 μM BG alone
Protocol: The cells were inoculated at a density of 0.5 mL (1 × 10^5) in the upper layer of the transwell plate (AP side), and the culture was changed daily after the lower layer was added with 1.5 mL of complete medium without cells every other day. […] The electrical resistance of the cell monolayer compartments was measured with a resistivity meter (TEER), and the integrity of the cell monolayer was monitored using TEER. […]

>  <Compound>
O=C(O)[C@H]1O[C@@H](Oc2cc3oc(-c4ccccc4)cc(=O)c3c(O)c2O)[C@H](O)[C@@H](O)[C@@H]1O [BG, Baicalein-7-O-β-D-glucuronide]

>  <Papp B→A at 120 min, 100 μM [×10⁻⁶ cm/s]>
11.6

$$$$

* * *

Consider the following compounds and their measured AUC(0-t) at 100 μM readings.
Test: Pharmacokinetic study of baicalin in HepG2 cells (intracellular concentrations by UPLC-MS/MS)
Assay type: in vitro ADME, human
Details: human, HepG2 cells, intracellular, HepG2 cells given 100 μM baicalin alone (group BG, control), 0.25-24 h
Readout: AUC(0-t) at 100 μM (ng·h/mL)

>  <Compound>
O=C(O)[C@H]1O[C@@H](Oc2cc3oc(-c4ccccc4)cc(=O)c3c(O)c2O)[C@H](O)[C@@H](O)[C@@H]1O [BG, Baicalein-7-O-β-D-glucuronide]

>  <Readout>
AUC(0-t) at 100 μM

>  <Experimental result>
76000

$$$$
>  <Compound>
O=c1cc(-c2ccccc2)oc2cc(O)c(O)c(O)c12

>  <Readout>
AUC(0-t) at 100 μM

>  <Experimental result>
4450

$$$$

* * *

Target: MRP2 (Homo sapiens, UniProt Q92887)
Construct: expressed in transfected cells; host or cells: MDCK II
Sequence (Q92887 whole entry): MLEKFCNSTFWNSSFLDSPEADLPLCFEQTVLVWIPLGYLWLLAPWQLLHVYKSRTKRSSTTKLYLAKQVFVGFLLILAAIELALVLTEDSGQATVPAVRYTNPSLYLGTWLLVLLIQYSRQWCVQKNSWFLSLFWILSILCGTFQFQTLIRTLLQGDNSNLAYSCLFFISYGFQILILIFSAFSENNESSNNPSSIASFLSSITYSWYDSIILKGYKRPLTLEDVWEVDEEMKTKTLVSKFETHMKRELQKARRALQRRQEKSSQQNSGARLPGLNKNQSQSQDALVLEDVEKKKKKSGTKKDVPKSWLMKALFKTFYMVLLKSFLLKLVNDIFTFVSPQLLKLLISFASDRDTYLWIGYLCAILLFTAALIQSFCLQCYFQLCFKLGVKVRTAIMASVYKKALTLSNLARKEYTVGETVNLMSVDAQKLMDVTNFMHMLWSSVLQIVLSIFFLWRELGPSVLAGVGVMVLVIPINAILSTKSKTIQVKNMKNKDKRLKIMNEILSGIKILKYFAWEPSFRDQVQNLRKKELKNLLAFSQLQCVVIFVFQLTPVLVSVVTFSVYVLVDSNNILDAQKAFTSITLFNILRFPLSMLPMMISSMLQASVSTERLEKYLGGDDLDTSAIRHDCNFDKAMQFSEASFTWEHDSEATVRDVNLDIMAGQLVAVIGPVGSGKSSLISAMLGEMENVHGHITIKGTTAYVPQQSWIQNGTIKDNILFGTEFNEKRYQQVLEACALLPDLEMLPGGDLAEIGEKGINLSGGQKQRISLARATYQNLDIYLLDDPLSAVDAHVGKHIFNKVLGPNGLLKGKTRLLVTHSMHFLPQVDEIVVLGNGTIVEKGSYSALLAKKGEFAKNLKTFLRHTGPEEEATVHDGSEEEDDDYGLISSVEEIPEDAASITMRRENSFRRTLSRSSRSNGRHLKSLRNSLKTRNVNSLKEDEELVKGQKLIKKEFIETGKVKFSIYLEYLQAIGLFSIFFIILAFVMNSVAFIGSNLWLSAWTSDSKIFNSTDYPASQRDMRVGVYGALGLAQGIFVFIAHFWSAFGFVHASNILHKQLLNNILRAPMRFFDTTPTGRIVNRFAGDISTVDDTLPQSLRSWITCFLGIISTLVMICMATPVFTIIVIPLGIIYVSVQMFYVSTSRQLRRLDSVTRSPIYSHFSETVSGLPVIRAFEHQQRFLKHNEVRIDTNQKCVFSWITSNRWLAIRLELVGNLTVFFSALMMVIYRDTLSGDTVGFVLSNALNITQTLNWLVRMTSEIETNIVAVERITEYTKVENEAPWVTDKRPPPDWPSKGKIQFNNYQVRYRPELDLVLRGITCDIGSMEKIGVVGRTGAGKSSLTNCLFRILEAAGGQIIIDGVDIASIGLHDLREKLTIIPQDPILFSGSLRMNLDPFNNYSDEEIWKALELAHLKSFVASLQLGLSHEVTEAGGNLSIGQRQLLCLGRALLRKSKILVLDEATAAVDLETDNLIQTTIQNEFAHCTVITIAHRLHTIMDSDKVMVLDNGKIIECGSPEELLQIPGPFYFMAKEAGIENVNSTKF
Assay: Transport of baicalin across MDCK II-MRP2 cell monolayer (transwell)
Type: in vitro ADME
Conditions: pH 7.4, MDCK II-MRP2, 100 μM BG + 0.5% PEG400, read-out: ER
Readout: efflux ratio at 120 min, 100 μM

>  <Compound>
O=C(O)[C@H]1O[C@@H](Oc2cc3oc(-c4ccccc4)cc(=O)c3c(O)c2O)[C@H](O)[C@@H](O)[C@@H]1O [BG, Baicalein-7-O-β-D-glucuronide]

>  <Experimental result>
1.08

$$$$

* * *

Molecular target: BCRP (Homo sapiens, UniProt Q9UNQ0)
Construct: expressed in transfected cells; host or cells: MDCK II
Sequence (Q9UNQ0 1-655): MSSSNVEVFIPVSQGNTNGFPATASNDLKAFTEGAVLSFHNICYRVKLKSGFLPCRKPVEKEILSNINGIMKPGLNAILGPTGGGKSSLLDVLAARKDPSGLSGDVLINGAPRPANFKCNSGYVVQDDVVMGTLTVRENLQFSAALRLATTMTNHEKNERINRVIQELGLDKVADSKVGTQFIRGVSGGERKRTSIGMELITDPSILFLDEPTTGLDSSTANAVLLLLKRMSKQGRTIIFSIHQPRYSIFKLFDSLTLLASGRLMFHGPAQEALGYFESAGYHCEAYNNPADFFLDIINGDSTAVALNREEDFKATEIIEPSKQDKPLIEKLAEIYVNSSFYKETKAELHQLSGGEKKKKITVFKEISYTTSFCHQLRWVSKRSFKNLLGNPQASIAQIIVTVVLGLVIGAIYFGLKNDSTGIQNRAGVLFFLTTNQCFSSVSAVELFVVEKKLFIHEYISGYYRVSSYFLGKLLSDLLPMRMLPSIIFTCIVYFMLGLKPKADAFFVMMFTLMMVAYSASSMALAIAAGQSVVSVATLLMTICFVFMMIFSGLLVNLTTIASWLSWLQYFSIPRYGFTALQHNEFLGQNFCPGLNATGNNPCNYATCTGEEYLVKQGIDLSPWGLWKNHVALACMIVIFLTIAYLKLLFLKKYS
Test: Transport of baicalin across MDCK II-BCRP cell monolayer (transwell)
Format: in vitro ADME
Conditions: pH 7.4, MDCK II-BCRP, 100 μM BG + 0.25% PEG400
Readout: Papp A→B at 120 min, 100 μM

>  <Compound>
O=C(O)[C@H]1O[C@@H](Oc2cc3oc(-c4ccccc4)cc(=O)c3c(O)c2O)[C@H](O)[C@@H](O)[C@@H]1O [BG, Baicalein-7-O-β-D-glucuronide]

>  <Readout>
Papp A→B at 120 min, 100 μM

>  <Experimental result>
5.64 ×10⁻⁶ cm/s

$$$$

* * *

Target: BCRP (Homo sapiens, UniProt Q9UNQ0)
Construct: expressed in transfected cells; host or cells: MDCK II
Test: Transport of baicalin across MDCK II-BCRP cell monolayer (transwell)
Format: in vitro ADME
Conditions: pH 7.4, MDCK II-BCRP, 100 μM BG + 1% PEG400

>  <Compound>
O=C(O)[C@H]1O[C@@H](Oc2cc3oc(-c4ccccc4)cc(=O)c3c(O)c2O)[C@H](O)[C@@H](O)[C@@H]1O [BG, Baicalein-7-O-β-D-glucuronide]

>  <Tested system>
BCRP (Homo sapiens, UniProt Q9UNQ0)

>  <Papp B→A at 120 min, 100 μM (×10⁻⁶ cm/s)>
6.9

$$$$

// data source = paper PMC11206988
